Test: HepG2 liver cancer cell viability effects, profiling panel, resazurin fluorescence, 24 h, PK04 Diversity Set (AID 1172)
Conditions: higher = more signal
Parameter: z-score

{"columns": ["Compound", "Test Result"],
 "data": [
  ["C=C(COC)/C(=C/C[C@H](OC(C)=O)c1cccc(OCCO)c1)c1cnc2ccccc2c1", -0.0054],
  ["C=C(/C(=C/C[C@H](OC(=O)c1ccncc1)c1ccccc1OCCO)c1cnc2ccccc2c1)C(C)C", 0.495],
  ["C=C(COC)C(=O)CC[C@H](OC(=O)c1cccnc1)c1ccc(CO)o1", -0.655],
  ["CCOC(=O)C1=CCC(c2ccccc2)N(S(=O)(=O)c2ccc([N+](=O)[O-])cc2)C1 (centres undefined)", 0.21],
  ["C=C(/C(=C/C[C@H](OC(=O)c1ccncc1)c1cccc(OCCO)c1)c1cnc2ccccc2c1)C(C)C", -0.982],
  ["Cc1ccc(S[C@]2(C(=O)NCc3ccccc3)CC(=O)N(Cc3cc(C(F)(F)F)cc(C(F)(F)F)c3)[C@@H]2c2ccc(CO)cc2I)cc1", 1.24],
  ["CCOC(=O)C=Cc1ccccc1O", -0.193],
  ["COCCOC(=O)N1C(=O)[C@@]2(c3cc(C#CCCO)ccc31)[C@H](C(N)=O)[C@H]1C(=O)O[C@H](c3ccccc3)[C@H](c3ccccc3)N1[C@@H]2c1ccc(OCCO)cc1", -0.639],
  ["Cc1cccc([C@H]2C[C@H]3C(Br)=C[C@@H]2C(=O)[C@]32CO2)c1", -0.536]
]}

* * *

Assay: binders of probe aFGF10 on microarray, primary screen, stem cell growth factor project, biochemical, small-molecule microarray, fluorescence 635/667 (AID 1071);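 note: score merges 667 nm spot intensity and signal to noise from triplicate slides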
Conditions: higher = more signal
Parameter: composite z-score

{"columns": ["Compound", "Test Result"],
 "data": [
  ["C=C(/C(=C/C[C@@H](OC(C)=O)c1ccc(OCCO)cc1)c1cc(C(=O)OC)ccc1OC)C(C)C", 0.29],
  ["COCCOC(=O)N1C(=O)[C@@]2(c3cc(C#CCNC(N)=O)ccc31)[C@H](c1ccc(O)cc1)N1[C@H](c3ccccc3)[C@H](c3ccccc3)OC(=O)[C@H]1[C@@H]2C(N)=O", -0.484],
  ["CC(C)C(CO)N1C(=O)[C@@H]2[C@H]3C(=O)OCC=C[C@H]3OC23C=CCN(C(C)(C)C)C(=O)[C@@H]13 (stereo not given in full)", -0.724],
  ["C=CCN1C(=O)[C@]2(O[C@H](CCO)[C@@H]([Si](C)(C)c3ccc(OC)cc3)[C@@H]2C)c2cc(NC(=O)c3ccc(OC)cc3)ccc21", 0.3],
  ["COc1cc(NN2C(C(O)c3ccccc3)C=CC3C(=O)N(C)C(=O)C32)cc(OC)c1OC (stereo not given)", 0.371],
  ["[N-]=[N+]=NCc1ccccc1[C@@H]1OC(c2ccc(OCCCO)cc2)=N[C@]1(Cc1ccccc1)C(=O)NCCN1CCOCC1", 1.1],
  ["CCOC(=O)C1=C[C@@H](c2ccccc2)N(S(=O)(=O)c2ccc(C)cc2)[C@H]1c1ccccc1", 0.21],
  ["COC(=O)c1c2oc(c1C(=O)OC)C(=O)N1CCC[C@H]1Cn1nncc1CN(Cc1ccccc1)C(=O)N[C@H](CO)CC2", 0.627],
  ["CC=CC(O)C1C=CC2C(=O)NC(=O)C2N1Nc1ccccn1 (stereo not given)", 0.204],
  ["CC(C)C(=C=CC[C@@H](O)c1cccc(OCCO)c1)C[C@@H](O)COCc1ccccc1", 0.45]
]}

* * *

Molecular target: Fibroblast growth factor 2 (Homo sapiens) (UniProt P09038)
Sequence (P09038 whole entry, looked up): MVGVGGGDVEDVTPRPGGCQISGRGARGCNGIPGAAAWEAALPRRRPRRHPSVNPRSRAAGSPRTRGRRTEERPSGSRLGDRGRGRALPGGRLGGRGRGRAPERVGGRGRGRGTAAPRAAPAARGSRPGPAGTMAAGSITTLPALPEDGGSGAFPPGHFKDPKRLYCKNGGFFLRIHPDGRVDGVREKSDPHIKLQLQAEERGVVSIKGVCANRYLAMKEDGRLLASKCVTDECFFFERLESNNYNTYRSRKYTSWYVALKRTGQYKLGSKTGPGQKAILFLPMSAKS
Assay: FGF2 binders on small-molecule microarrays, primary screen, biochemical, small-molecule microarray, 635/667 nm fluorescence (AID 1133)
Conditions: small-molecule microarray binding, FGF2, fluorescence 635/667; higher = more signal
Label Yes when composite z-score is at or above 0.5; anything below gets No.

{"columns": ["Compound", "Qualitative Label"],
 "data": [
  ["CC(C)OC(=O)CC(=O)CC(O)c1ccc([N+](=O)[O-])cc1 (stereo not drawn)", "No"],
  ["O=C1C2C=CC(C(O)c3cccc(O)c3)N(Nc3ccccc3)C2C(=O)N1c1ccccc1 (stereo not drawn)", "No"],
  ["C=CCNC(=O)[C@@H]1[C@H]2C(=O)O[C@H](c3ccccc3)[C@H](c3ccccc3)N2[C@H](c2ccc(OCCO)cc2)[C@@]12C(=O)N(C(=O)OCCOC)c1ccc(C#CCCO)cc12", "No"],
  ["O=C1C[C@@](C(=O)NCC(F)(F)F)(c2ccc([N+](=O)[O-])cc2)[C@@H](c2ccc(CO)cc2)N1CC12CC3CC(CC(C3)C1)C2", "Yes"],
  ["COC(=O)C1=CC(CCCO)=CC(c2ccc(CN3CCCC3)cc2)N(Cc2cc3c(cc2Br)OCO3)C=C1C(=O)OC (stereo not drawn)", "Yes"],
  ["COCCOC(=O)N1C(=O)[C@@]2(c3cc(C#CC4(O)CCCCCC4)ccc31)[C@H](c1ccc(OCCO)cc1)N1[C@H](c3ccccc3)[C@H](c3ccccc3)OC(=O)[C@H]1[C@@H]2C(=O)Nc1nc2ccccc2s1", "Yes"],
  ["CCOC(=O)C1=CCN(S(=O)(=O)c2ccc(C)cc2)C1c1ccccc1 (stereo not drawn)", "Yes"],
  ["CCN(CC)c1ccc(N2CC=CC34O[C@@H]5/C=C\\CCC(C)OC(=O)C5[C@H]3C(=O)N(C(C)CO)[C@@H]4C2=O)cc1 (stereo partly drawn)", "No"]
]}

* * *

Assay: FRG1 promoter luciferase signal modulators, primary screen, FRG1 inhibition for FSHD, cell-based, C2C12 myotubes, firefly/Renilla luciferase, luminescence (AID 1084)
Settings: higher = more signal, called active from +8 up or from −8 down
Label criterion met when z-score is at or above 0.02; anything below gets criterion not met.

{"columns": ["Molecule", "Qualitative Label"],
 "data": [
  ["O=C(CS)NCCCCCNC(=O)[C@@H]1C[C@@H]2C(=O)N[C@@H](Cc3ccccc3)C(=O)N2[C@@H]1c1cccc(OCCO)c1", "criterion met"],
  ["NCCCCCNC(=O)[C@@H]1C[C@@H]2C(=O)N3CCC[C@H]3C(=O)N2[C@@H]1c1ccc(O)cc1", "criterion met"],
  ["O=C1[C@@H]2[C@@H](CC(COc3ccccc3)=C3[C@@H](CCc4ccccc4)OB(O)C[C@@H]32)C(=O)N1Cc1ccccc1", "criterion not met"],
  ["CC1CC/C=C\\[C@H]2OC34C=CCN(C(C)(C)C)C(=O)[C@H]3N(C(CO)C(C)C)C(=O)[C@@H]4C2C(=O)O1 (stereo not given in full)", "criterion met"],
  ["COC(=O)[C@@]1(Cc2ccc(OC)cc2)[C@H]2c3cc(C(=O)N4CCCC4)n(Cc4ccc(OC(F)(F)F)cc4)c3C[C@H]2CN1C(=O)c1ccccc1", "criterion met"]
]}

* * *

System: XIP peptide (Xip251-270) binding
Assay: small-molecule binders of XIP peptide, primary screen, biochemical, small-molecule microarray, fluorescence 635/667 nm, 0.1 µg/mL protein (AID 1182)
Conditions: fluorescent protein binding, 635 nm, higher = more signal, called active from +8 up or from −8 down
Label rule met when composite z-score is at or above 1; anything below gets rule not met.

{"columns": ["Compound", "Qualitative Label"],
 "data": [
  ["COC(=O)[C@@]1(Cc2ccc(F)cc2)[C@H]2c3cc(C(=O)N4CCCC4)n(CC4CC4)c3C[C@H]2CN1C(=O)c1ccccc1", "rule met"],
  ["CN1C(=O)[C@@]2(Cc3ccccc3)N=C(c3ccc(OCCCO)cc3)O[C@H]2c2ccccc21", "rule met"],
  ["CN1C(=O)[C@@H]2[C@@H](CC(COc3ccccc3)=C([C@H](O)CCc3ccccc3)[C@@H]2CO)C1=O", "rule not met"],
  ["CCOC(=O)C[C@H]1[C@H](OC(=O)c2ccccc2-c2ccccc2)[C@@H](NC(=O)c2ccccc2)c2cc(OCCCO)ccc2N1C(=O)c1ccccc1", "rule not met"],
  ["O=C1OCCC=C[C@H]2OC34C=CCN(c5ccc(Cl)cc5)C(=O)[C@H]3N(CCCCCCO)C(=O)[C@@H]4C12 (stereo not given in full)", "rule not met"]
]}

* * *

List of composite z-score values.
Biological target: E3 ubiquitin-protein ligase XIAP (Homo sapiens)
Experiment: XIAP binders, primary screen, biophysical, small-molecule microarray, fluorescence 635 nm (AID 1181);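 note: score merges 667 nm emission and signal to noise over triplicate slides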
Conditions: small-molecule microarray binding, higher = more signal

{"columns": ["Compound Structure", "composite z-score"],
 "data": [
  ["COCCCNC(=O)[C@@]1(Sc2ccc(C)cc2)CC(=O)N(C(C)C)[C@@H]1c1ccc(CO)cc1I", -0.37],
  ["CC(C)CNC(=O)[C@@]1(c2ccc([N+](=O)[O-])cc2)CC(=O)N(C2CCCCC2)[C@@H]1c1ccc(CO)cc1", 0.14],
  ["C[C@@]12COC[C@]13C=C(Br)[C@H](C2)[C@@]1(CO1)C3=O", -0.154],
  ["COCCOC(=O)N1C(=O)[C@@]2(c3cc(C#CCC(C(=O)OC)C(=O)OC)ccc31)[C@H](c1ccc(O)cc1)N1[C@H](c3ccccc3)[C@H](c3ccccc3)OC(=O)[C@H]1[C@@H]2C(=O)NC[C@H](O)c1ccccc1", -0.187]
]}
